assay: Ratio of drug concentration in CD-1 mouse brain to plasma at 0.4 mg/kg, iv measured after 1 hr; type: ADME, organism-based
Threshold check on BPR: at or above 0.6 gives met, strictly below gives not met.

* COc1nc(-c2csc(Nc3c4c(nn3CCF)CCCC4)n2)ccc1-n1cnc(C)c1 | met
* COc1nc(-c2csc(Nc3c4c(nn3C)CCC4)n2)ccc1-n1cnc(C)c1 | not met
* CCn1nc(C2(C)CC2)cc1Nc1nc(-c2ccc(-n3cnc(C)c3)c(OC)n2)cs1 | met
* CCn1nc(C(F)(F)F)cc1Nc1nc(-c2ccc(-n3cnc(C)c3)c(OC)n2)cs1 | met
* CCn1nc2c(c1Nc1nc(-c3ccc(-n4cnc(C)c4)c(OC)n3)cs1)CCC2 | not met
